- study.system: PDZ protein (GST-PDZ fusion) (Homo sapiens)
- Construct: made in house; host or cells: E. coli (DH5alpha, BL21 or JM109)
- Sequence (Q5TCQ9 1-1481): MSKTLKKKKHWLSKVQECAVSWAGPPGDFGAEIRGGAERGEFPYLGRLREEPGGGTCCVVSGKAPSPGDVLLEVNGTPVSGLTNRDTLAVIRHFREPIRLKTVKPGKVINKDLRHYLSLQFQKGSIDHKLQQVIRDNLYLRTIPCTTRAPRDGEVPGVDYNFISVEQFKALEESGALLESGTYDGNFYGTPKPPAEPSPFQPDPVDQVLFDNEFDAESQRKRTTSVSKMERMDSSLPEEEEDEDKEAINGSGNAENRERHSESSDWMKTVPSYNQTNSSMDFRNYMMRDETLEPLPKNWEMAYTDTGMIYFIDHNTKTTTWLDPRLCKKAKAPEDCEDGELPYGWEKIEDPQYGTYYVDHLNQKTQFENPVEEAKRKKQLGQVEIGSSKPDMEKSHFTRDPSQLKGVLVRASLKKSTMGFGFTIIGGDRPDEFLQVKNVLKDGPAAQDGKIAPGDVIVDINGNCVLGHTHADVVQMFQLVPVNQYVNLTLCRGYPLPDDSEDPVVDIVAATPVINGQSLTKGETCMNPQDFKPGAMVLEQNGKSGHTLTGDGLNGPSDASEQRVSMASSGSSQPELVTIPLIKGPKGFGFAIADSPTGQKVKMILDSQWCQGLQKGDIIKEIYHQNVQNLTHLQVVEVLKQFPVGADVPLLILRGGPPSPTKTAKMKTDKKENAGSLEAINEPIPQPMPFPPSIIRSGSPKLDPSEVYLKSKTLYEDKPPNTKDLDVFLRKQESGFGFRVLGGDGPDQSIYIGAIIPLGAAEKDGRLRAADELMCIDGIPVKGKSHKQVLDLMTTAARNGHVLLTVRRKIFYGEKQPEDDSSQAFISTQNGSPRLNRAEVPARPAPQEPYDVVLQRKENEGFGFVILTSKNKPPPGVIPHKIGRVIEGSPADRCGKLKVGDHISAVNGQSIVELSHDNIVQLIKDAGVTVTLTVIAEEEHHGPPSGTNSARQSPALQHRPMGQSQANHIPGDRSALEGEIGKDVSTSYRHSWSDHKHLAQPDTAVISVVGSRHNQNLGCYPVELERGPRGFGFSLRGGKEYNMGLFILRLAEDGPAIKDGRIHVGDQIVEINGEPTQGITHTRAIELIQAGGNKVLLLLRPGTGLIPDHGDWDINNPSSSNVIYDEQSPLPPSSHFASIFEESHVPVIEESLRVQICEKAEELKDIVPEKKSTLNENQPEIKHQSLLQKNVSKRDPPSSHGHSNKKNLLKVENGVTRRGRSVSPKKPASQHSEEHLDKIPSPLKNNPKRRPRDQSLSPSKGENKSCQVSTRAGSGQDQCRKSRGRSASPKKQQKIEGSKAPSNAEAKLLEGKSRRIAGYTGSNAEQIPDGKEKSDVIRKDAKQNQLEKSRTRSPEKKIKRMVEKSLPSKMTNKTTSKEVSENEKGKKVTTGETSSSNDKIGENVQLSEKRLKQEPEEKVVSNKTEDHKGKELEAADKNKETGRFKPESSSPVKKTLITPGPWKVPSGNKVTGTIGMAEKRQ
- experiment.notes: G' assay (10 uM PL peptide), results of TABLE 7 and TABLE 12
- Format: binding
- condition.summary: PDZ KIAA1634, PDZ Domain 2
Ends that are not written are not given here. * marks the point of attachment. Biotin = O=C1N[C@H]2[C@H](CS[C@H]2CCCCC(=O)*)N1
Documented Classification across a set of substances

Consider the following illustrative entries.
substance: SLKPGTVLPPPPYRHRNTVV (Biotin-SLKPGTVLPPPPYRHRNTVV) [ErbB-4 receptor]
Classification: 1 (A450 nm 0-1)
//
substance: HPTDITGLPNLSDPSVSTVV (Biotin-HPTDITGLPNLSDPSVSTVV) [NMDA R2C]
Classification: 1 (A450 nm 0-1)
//
substance: TQGFPGPATWRRISSLESEV
Classification: 3 (A450 nm 2-3)
//
substance: PYQSQGFSTEEDEDEQVSAV (Biotin-PYQSQGFSTEEDEDEQVSAV) [RA-GEF (ras/rap1A-assoc-GEF)]
Classification: 2 (A450 nm 1-2)
//
substance: APC—adenomatous polyposis coli protein (ESSGTQSPKRHSGSYLVTSV)
Classification: 1 (A450 nm 0-1)

Now for the substance whose Classification we want.
# lookup: Classification of ISGTPTSTMVHGMTSSSSVV (Biotin-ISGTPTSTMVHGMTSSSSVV) [Clasp-2]
1 (A450 nm 0-1)
